# System: HepG2 cells
# procedureText: Cellular antioxidant activity (CAA) assay: inhibition of peroxyl radical-induced DCFH oxidation
# Assay type: cell-based, human
# conditionDetails: Homo sapiens, HepG2, Example 1, Table 1; PBS wash; pure phytochemical compounds; mean ± SD, n=3; read-out: EC50 for inhibition of peroxyl radical-induced DCFH oxidation
outcomeMeasure: EC50 (µM)

A. O=c1c(O)c(-c2ccc(O)cc2)oc2cc(O)cc(O)c12
B. O=C(O)/C=C/c1ccc(O)c(O)c1
C. O=c1c(O)c(-c2cc(O)c(O)c(O)c2)oc2cc(O)cc(O)c12
D. O=c1cc(-c2ccc(O)c(O)c2)oc2cc(O)cc(O)c12
E. O=C(O)c1cc(O)c(O)c(O)c1
Ask: Could you list the above compounds by EC50, going from the biggest number down? Write the labels in rank order as requested.
Reply: B, E, D, C, A
(B: 525 µM, E: 335 µM, D: 23.1 µM, C: 15.4 µM, A: 6.31 µM)
